Molecular target: hAR (human androgen receptor) (Homo sapiens)
Construct: made in house; host or cells: baculovirus/Sf9 insect cells
Sequence (P10275 1-920): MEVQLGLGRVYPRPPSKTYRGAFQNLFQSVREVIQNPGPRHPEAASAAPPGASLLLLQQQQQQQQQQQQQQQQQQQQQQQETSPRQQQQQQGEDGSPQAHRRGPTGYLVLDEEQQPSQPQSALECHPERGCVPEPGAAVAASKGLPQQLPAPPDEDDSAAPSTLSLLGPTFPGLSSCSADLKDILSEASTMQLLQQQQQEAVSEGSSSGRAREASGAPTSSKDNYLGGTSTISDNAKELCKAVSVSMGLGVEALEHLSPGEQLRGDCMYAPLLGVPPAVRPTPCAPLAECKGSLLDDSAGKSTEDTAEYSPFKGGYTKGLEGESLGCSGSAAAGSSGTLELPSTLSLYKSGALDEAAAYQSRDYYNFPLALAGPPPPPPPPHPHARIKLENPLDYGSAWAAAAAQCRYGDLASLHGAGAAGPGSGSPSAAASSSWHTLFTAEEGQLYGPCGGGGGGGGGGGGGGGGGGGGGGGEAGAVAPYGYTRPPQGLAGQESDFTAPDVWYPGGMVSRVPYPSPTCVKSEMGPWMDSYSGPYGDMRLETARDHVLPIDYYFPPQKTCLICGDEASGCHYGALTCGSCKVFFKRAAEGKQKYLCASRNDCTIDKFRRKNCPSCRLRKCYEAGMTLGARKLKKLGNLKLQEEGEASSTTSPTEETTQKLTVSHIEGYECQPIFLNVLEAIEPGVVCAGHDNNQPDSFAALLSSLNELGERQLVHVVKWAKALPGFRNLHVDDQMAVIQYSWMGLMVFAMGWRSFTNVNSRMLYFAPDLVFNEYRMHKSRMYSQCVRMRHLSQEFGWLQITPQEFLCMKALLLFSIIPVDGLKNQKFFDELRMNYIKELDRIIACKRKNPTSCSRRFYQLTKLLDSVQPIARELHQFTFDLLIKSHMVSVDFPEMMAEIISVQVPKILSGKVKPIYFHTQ
Test: Competitive binding analysis on baculovirus/Sf9 generated hAR extracts with 3H-DHT tracer
Conditions: read-out: AR Binding IC50
measured.quantity: IC50 (nM)
Hi! Could you send only the number? It should be in nM, unit omitted.

// lookup IC50 for CC(CCO)CCOc1ccc(C#N)c(C(F)(F)F)c1 (stereo not drawn) [Example 26] 777

// lookup IC50 for CC(O)C(C)COc1ccc(C#N)c(C(F)(F)F)c1 (stereo not drawn) [Example 10] 70

// lookup IC50 for N#Cc1ccc(OCCCO)cc1Cl [Example 29] 394

// lookup IC50 for CC(O)CCC(C)Oc1ccc(C#N)c(Cl)c1 (stereo not drawn) [Example 28] 49

// lookup IC50 for CC(O)CCCOc1ccc(C#N)c(C(F)(F)F)c1 (stereo not drawn) [Example 19] 505

// lookup IC50 for CCCCCCC(O)COc1ccc(C#N)c(C(F)(F)F)c1 (stereo not drawn) [Example 5] 32

----------
Target: hAR (human androgen receptor) (Homo sapiens, UniProt P10275)
Construct: made in house; host or cells: baculovirus/Sf9 insect cells
Assay: Competitive binding analysis on baculovirus/Sf9 generated hAR extracts with 3H-DHT tracer
Conditions: read-out: AR Binding IC50
Description: The description below describes how the assay was carried out. Competitive binding analysis was performed on baculovirus/Sf9 generated hAR extracts in the presence or absence of different concentrations of test agent and a fixed concentration of ^3H-dihydrotestosterone (^3H-DHT) as tracer. […] Compound binding affinity to the hAR is expressed as the concentration of compound at which one half of the maximum binding is inhibited.
Kindly state pIC50 for each of the entries shown.
Friendly reminder that pIC50 comes from taking -log10 of the concentration in mol/L.

Notebook: pull reported pIC50 for hAR (human androgen receptor) (Homo sapiens, UniProt P10275), entry N#Cc1ccc(OCCCCO)cc1C(F)(F)F [Example 18] 7.13

Notebook: pull reported pIC50 for hAR (human androgen receptor) (Homo sapiens, UniProt P10275), entry CCCC(CCCO)Oc1ccc(C#N)c(C(F)(F)F)c1 (stereo not shown) [Example 21] 6.09

Notebook: pull reported pIC50 for hAR (human androgen receptor) (Homo sapiens, UniProt P10275), entry N#Cc1ccc(OCCCCO)cc1Cl [Example 30] 7.00

Notebook: pull reported pIC50 for hAR (human androgen receptor) (Homo sapiens, UniProt P10275), entry CC(C)(O)CCOc1ccc(C#N)c(C(F)(F)F)c1 [Example 12] 7.57
